leukocytes (WBC), Day1 after modeling for assorted molecules
Test system: leukocytes (WBC)
Assay: Cyclophosphamide-induced leukopenia in mice: leukocytes (WBC)
Type: in vivo, Kunming mice
Settings: Experimental Example 2; 0.8 mg/kg; CY 100 mg/kg x 3 days
Description: Further, in vivo experiments were carried out on the compounds involved in the present invention using animal models of cyclophosphamide-induced leukopenia in mice. […] The mice were killed on day 5 after the final lumbar injection of cyclophosphamide (i.e day 5 after modeling), and the leukocytes (WBC) and platelets (PLT) of the hemogram index were counted. […]
Form: value (number only, do not type unit).

Structure Smiles: CC1(C)CC[C@]2(C(=O)O)CC[C@]3(C)C(=CC[C@@H]4[C@@]5(C)CC[C@H](O)C(C)(C)[C@@H]5CC[C@]43C)[C@@H]2C1
leukocytes (WBC), Day1 after modeling: 0.99
--
Structure Smiles: C[C@H]1[C@H](C)CC[C@]2(C(=O)O[C@@H]3O[C@H](CO)[C@@H](O)[C@H](O)[C@H]3O)CC[C@]3(C)C(=CC[C@@H]4[C@@]5(C)CC[C@H](O[C@@H]6OC[C@H](O)[C@H](O)[C@H]6O)C(C)(C)[C@@H]5CC[C@]43C)[C@H]12
leukocytes (WBC), Day1 after modeling: 0.85

Please report the recorded leukocytes (WBC), Day1 after modeling for `C[C@H]1[C@H](C)CC[C@]2(C(=O)O)CC[C@]3(C)C(=CC[C@@H]4[C@@]5(C)CC[C@H](O[C@@H]6OC[C@H](O)[C@H](O)[C@H]6O)C(C)(C)[C@@H]5CC[C@]43C)[C@H]12` .
1.19

Similarly, `C[C@H]1[C@H](C)CC[C@]2(C(=O)O)CC[C@]3(C)C(=CC[C@@H]4[C@@]5(C)CC[C@H](O)C(C)(C)[C@@H]5CC[C@]43C)[C@H]12` ?
1.01

----------
Tested on: erythrocytes
Experiment: Comparison of hemolytic activities (HD50)
Type: cell-based, rabbit
Conditions: 10% rabbit erythrocyte suspension; 37° C., 1 hour; from linear regression over 40-200 μg/ml
HD50 (drug concentration causing 50% hemolysis) for assorted compounds
Just the number in µg/mL, nothing appended.

Observe how each entry below is paired with its result.
Structure Smiles: C[C@H]1[C@H](C)CC[C@]2(C(=O)O[C@@H]3O[C@H](CO)[C@@H](O)[C@H](O)[C@H]3O)CC[C@]3(C)C(=CC[C@@H]4[C@@]5(C)CC[C@H](O[C@@H]6O[C@H](CO)[C@@H](O)[C@H](O)[C@H]6O)C(C)(C)[C@@H]5CC[C@]43C)[C@H]12
Unit Text: µg/mL
Endpoint Result: 137.99
--
Structure Smiles: C[C@H]1[C@H](C)CC[C@]2(C(=O)O[C@@H]3OC[C@H](O)[C@H](O)[C@H]3O)CC[C@]3(C)C(=CC[C@@H]4[C@@]5(C)CC[C@H](O[C@@H]6OC[C@H](O)[C@H](O)[C@H]6O)C(C)(C)[C@@H]5CC[C@]43C)[C@H]12
Unit Text: µg/mL
Endpoint Result: 345
--
Structure Smiles: C[C@H]1[C@H](C)CC[C@]2(C(=O)O)CC[C@]3(C)C(=CC[C@@H]4[C@@]5(C)CC[C@H](O[C@@H]6OC[C@H](O)[C@H](O)[C@H]6O)C(C)(C)[C@@H]5CC[C@]43C)[C@H]12
Unit Text: µg/mL
Endpoint Result: 121.40

--- query ---
Please report the recorded HD50 (drug concentration causing 50% hemolysis) for `C[C@H]1[C@H](C)CC[C@]2(C(=O)O[C@@H]3O[C@H](CO)[C@@H](O)[C@H](O)[C@H]3O)CC[C@]3(C)C(=CC[C@@H]4[C@@]5(C)CC[C@H](O[C@@H]6OC[C@H](O)[C@H](O)[C@H]6O)C(C)(C)[C@@H]5CC[C@]43C)[C@H]12` .
69.96

These measurements were taken from patent US8394776B2.
